These data points were gathered from the NIST ThermoML archive (doi:10.1021/acs.jced.8b00298).

# recorded_conditions: Liquid; Visual
Lab note - cut at 3000 kPa for Critical pressure: Criterion met if strictly below, Criterion not met if not.

Reference set, count: 3
>>> classification("CC(C)(C)C1CCCCC1 [1,1-dimethylethylcyclohexane]")
"Criterion met"
>>> classification("CCC1CCCCC1 [ethylcyclohexane]")
"Criterion not met"
>>> classification("CCCCc1ccccc1 [butylbenzene]")
"Criterion met"

Moving on to the next compound.
Does this compound meet the criterion Critical pressure < 3000 kPa? S=C=S [carbon disulfide]
Criterion not met

----------
# recorded_conditions: Liquid; Capillary flow
Lab note - cut at 4000 kPa for Critical pressure: rule met if strictly below, rule not met if not.

Reference set, count: 5
>>> classification("CC(C)CCCC(C)CCCC(C)CCCCC(C)CCCC(C)CCCC(C)C (stereo not drawn) [2,6,10,15,19,23-hexamethyltetracosane]")
"rule met"
>>> classification("C=CC(=O)OCC(CC)CCCC (stereo not drawn) [2-ethylhexyl 2-propenoate]")
"rule met"
>>> classification("CCCCCCOCCCCCC [dihexyl ether]")
"rule met"
>>> classification("CNC=O [N-methylformamide]")
"rule not met"
>>> classification("COCCOCCOCCOCCOC [2,5,8,11,14-pentaoxapentadecane]")
"rule met"

Does this molecule meet the criterion Critical pressure < 4000 kPa? CCC(=O)OC(C)COC (stereo not drawn) [1-methoxypropan-2-yl propionate]
rule met

Does this molecule meet the criterion Critical pressure < 4000 kPa? CC(=O)OCCOC(C)=O [ethylene diacetate]
rule met

Does this molecule meet the criterion Critical pressure < 4000 kPa? Cc1ccsc1 [3-methylthiophene]
rule not met

Does this molecule meet the criterion Critical pressure < 4000 kPa? c1ccc(Cc2ccccc2)cc1 [diphenylmethane]
rule met

Does this molecule meet the criterion Critical pressure < 4000 kPa? C=C(C)C(=O)OCC [ethyl 2-methylpropenoate]
rule met

Does this molecule meet the criterion Critical pressure < 4000 kPa? CN(C)C=O [dimethylformamide]
rule not met

Does this molecule meet the criterion Critical pressure < 4000 kPa? O=C1CCCN1 [2-pyrrolidinone]
rule not met
